Assay: Human tumor cell line growth assay (SRB)
Type: cell-based
Conditions: human, IGR-OV1 cells (ovarian), IGR-OV1, 48 h, read-out: LC50
Measured metric: CC50 at 48 h (µM)
Record the value in µM, omitting the unit from your answer.

Cc1cc2nc3c4cc(O)ccc4n(CCN(C)C)c3nc2cc1C; 98.2

Ask: Returns the measured CC50 at 48 h for the input molecule. Input: COc1ccc2c(c1)c1nc3cc(C)c(C)cc3nc1n2CCN(C)C
Reply: 5.41

Ask: Returns the measured CC50 at 48 h for the input molecule. Input: Cc1cc2nc3c4ccccc4n(CCN(C)C)c3nc2cc1C [B220, reference compound]
Reply: 72.4

----------
Tested on: A498
Assay: Human tumor cell line growth assay (SRB)
Format: cell-based
Conditions: Renal, A498, 48 h, read-out: LC50 (the source's name)
Recorded CC50 for the following compounds
Record the value in µM, omitting the unit from your answer.

Cc1cc2nc3c4cc(N)ccc4n(CCN(C)C)c3nc2cc1C; 5.86
Cc1cc2nc3c4ccccc4n(CCN(C)C)c3nc2cc1C [B220, reference compound]; 5.74
COc1ccc2c(c1)c1nc3cc(C)c(C)cc3nc1n2CCN(C)C; 5.56

Ask: Returns the measured CC50 for the input compound. Input: Cc1cc2nc3c4cc([N+](=O)[O-])ccc4n(CCN(C)C)c3nc2cc1C
Reply: 5.5

Ask: Returns the measured CC50 for the input compound. Input: Cc1cc2nc3c4cc(O)ccc4n(CCN(C)C)c3nc2cc1C
Reply: 5.69

----------
Assay: Human tumor cell line growth assay (SRB)
Format: cell-based
Conditions: human, SF-295 cells (CNS), SF-295, 48 h, read-out: LC50
Measured metric: CC50 at 48 h

Examples with their reported CC50 at 48 h follow.
Cc1cc2nc3c4cc([N+](=O)[O-])ccc4n(CCN(C)C)c3nc2cc1C; 8.64 µM
Cc1cc2nc3c4ccccc4n(CCN(C)C)c3nc2cc1C [B220, reference compound]; 42.5 µM
Cc1cc2nc3c4cc(N)ccc4n(CCN(C)C)c3nc2cc1C; 33.8 µM

Ask: Returns the measured CC50 at 48 h for the input compound. Input: Cc1cc2nc3c4cc(O)ccc4n(CCN(C)C)c3nc2cc1C
Reply: > 100 µM

Ask: Returns the measured CC50 at 48 h for the input compound. Input: COc1ccc2c(c1)c1nc3cc(C)c(C)cc3nc1n2CCN(C)C
Reply: 5.13 µM

----------
Experiment: Human tumor cell line growth assay (SRB)
Assay type: cell-based
Details: human, NCI-H522 cells (NSCLC), NCI-H522, 48 h
Recorded LC50 at 48 h for the following compounds

Examples with their reported LC50 at 48 h follow.
Cc1cc2nc3c4ccccc4n(CCN(C)C)c3nc2cc1C [B220, reference compound]; > 100 µM
Cc1cc2nc3c4cc(N)ccc4n(CCN(C)C)c3nc2cc1C [JBD-136]; > 100 µM

Ask: Returns the measured LC50 at 48 h for the input compound. Input: COc1ccc2c(c1)c1nc3cc(C)c(C)cc3nc1n2CCN(C)C [JBA-094]
Reply: > 100 µM

Ask: Returns the measured LC50 at 48 h for the input compound. Input: Cc1cc2nc3c4cc(O)ccc4n(CCN(C)C)c3nc2cc1C [JBD-139]
Reply: > 100 µM

Ask: Returns the measured LC50 at 48 h for the input compound. Input: Cc1cc2nc3c4cc([N+](=O)[O-])ccc4n(CCN(C)C)c3nc2cc1C [JBA-185]
Reply: > 100 µM

----------
Here we list compounds with their recorded GI50 when tested on SK-MEL-28.
Record the value in nM, omitting the unit from your answer.

Examples with their reported GI50 follow.
Cc1cc2nc3c4cc([N+](=O)[O-])ccc4n(CCN(C)C)c3nc2cc1C; 807
Cc1cc2nc3c4cc(N)ccc4n(CCN(C)C)c3nc2cc1C; 2260
Cc1cc2nc3c4cc(O)ccc4n(CCN(C)C)c3nc2cc1C; 1500
COc1ccc2c(c1)c1nc3cc(C)c(C)cc3nc1n2CCN(C)C; 1790

Ask: Record lookup: for SK-MEL-28, what GI50 belongs to Cc1cc2nc3c4ccccc4n(CCN(C)C)c3nc2cc1C [B220, reference compound] ?
Reply: 2090

----------
Assay: Human tumor cell line growth assay (SRB)
Assay type: cell-based
Conditions: human, SK-MEL-2 cells (melanoma), SK-MEL-2, 48 h, read-out: LC50
Measured metric: CC50 at 48 h (µM)
Record the value in µM, omitting the unit from your answer.

Examples with their reported CC50 at 48 h follow.
Cc1cc2nc3c4cc(N)ccc4n(CCN(C)C)c3nc2cc1C [JBD-136]; 66.7
Cc1cc2nc3c4ccccc4n(CCN(C)C)c3nc2cc1C [B220, reference compound]; 7.49
Cc1cc2nc3c4cc([N+](=O)[O-])ccc4n(CCN(C)C)c3nc2cc1C [JBA-185]; 9.02

Below: the item to evaluate.
Ask: Returns the measured CC50 at 48 h for the input compound. Input: COc1ccc2c(c1)c1nc3cc(C)c(C)cc3nc1n2CCN(C)C [JBA-094]
Reply: 7.87

----------
Test: Human tumor cell line growth assay (SRB)
Assay type: cell-based
Details: human, NCI-H460 cells (NSCLC), NCI-H460, 48 h, read-out: LC50
Recorded CC50 at 48 h for the following compounds
Record the value in µM, omitting the unit from your answer.

Cc1cc2nc3c4cc([N+](=O)[O-])ccc4n(CCN(C)C)c3nc2cc1C; 26.7
Cc1cc2nc3c4ccccc4n(CCN(C)C)c3nc2cc1C [B220, reference compound]; 37.3
COc1ccc2c(c1)c1nc3cc(C)c(C)cc3nc1n2CCN(C)C; 4.98

Below: the item to evaluate.
Ask: Returns the measured CC50 at 48 h for the input compound. Input: Cc1cc2nc3c4cc(N)ccc4n(CCN(C)C)c3nc2cc1C
Reply: 36.6

----------
Here we list molecules with their recorded GI50 when tested on OVCAR-3.
Please answer in the form of a number followed by its unit of measurement.

Ask: Returns the measured GI50 for the input molecule. Input: Cc1cc2nc3c4cc([N+](=O)[O-])ccc4n(CCN(C)C)c3nc2cc1C
Reply: 0.59 µM

Ask: Returns the measured GI50 for the input molecule. Input: COc1ccc2c(c1)c1nc3cc(C)c(C)cc3nc1n2CCN(C)C
Reply: 1.26 µM

Ask: Returns the measured GI50 for the input molecule. Input: Cc1cc2nc3c4cc(N)ccc4n(CCN(C)C)c3nc2cc1C
Reply: 1.56 µM

Ask: Returns the measured GI50 for the input molecule. Input: Cc1cc2nc3c4ccccc4n(CCN(C)C)c3nc2cc1C [B220, reference compound]
Reply: 1.91 µM

Ask: Returns the measured GI50 for the input molecule. Input: Cc1cc2nc3c4cc(O)ccc4n(CCN(C)C)c3nc2cc1C
Reply: 0.97 µM

----------
Here we list compounds with their recorded GI50 when tested on DU-145.
Record the value in nM, omitting the unit from your answer.

Ask: Returns the measured GI50 for the input compound. Input: Cc1cc2nc3c4cc(N)ccc4n(CCN(C)C)c3nc2cc1C [JBD-136]
Reply: 1550

Ask: Returns the measured GI50 for the input compound. Input: COc1ccc2c(c1)c1nc3cc(C)c(C)cc3nc1n2CCN(C)C [JBA-094]
Reply: 1010

Ask: Returns the measured GI50 for the input compound. Input: Cc1cc2nc3c4ccccc4n(CCN(C)C)c3nc2cc1C [B220, reference compound]
Reply: 2070

Ask: Returns the measured GI50 for the input compound. Input: Cc1cc2nc3c4cc([N+](=O)[O-])ccc4n(CCN(C)C)c3nc2cc1C [JBA-185]
Reply: 540

Ask: Returns the measured GI50 for the input compound. Input: Cc1cc2nc3c4cc(O)ccc4n(CCN(C)C)c3nc2cc1C [JBD-139]
Reply: 598

----------
Test: Human tumor cell line growth assay (SRB)
Format: cell-based
Conditions: human, NCI-H23 cells (NSCLC), NCI-H23, 48 h, read-out: LC50
Measured metric: CC50 at 48 h

Examples with their reported CC50 at 48 h follow.
Cc1cc2nc3c4cc(N)ccc4n(CCN(C)C)c3nc2cc1C [JBD-136]; 33 µM
COc1ccc2c(c1)c1nc3cc(C)c(C)cc3nc1n2CCN(C)C [JBA-094]; 8.2 µM
Cc1cc2nc3c4ccccc4n(CCN(C)C)c3nc2cc1C [B220, reference compound]; 45.6 µM

Below: the item to evaluate.
Ask: Returns the measured CC50 at 48 h for the input compound. Input: Cc1cc2nc3c4cc([N+](=O)[O-])ccc4n(CCN(C)C)c3nc2cc1C [JBA-185]
Reply: 22.6 µM

----------
Experiment: Human tumor cell line growth assay (SRB), summary over the panel
Type: cell-based
Conditions: human, human tumor cell line panel (most cell lines of the panel); for most cell lines of the panel; read-out: LC50
Measured metric: CC50 at 48 h

Ask: Returns the measured CC50 at 48 h for the input compound. Input: Cc1cc2nc3c4cc([N+](=O)[O-])ccc4n(CCN(C)C)c3nc2cc1C
Reply: > 100 µM
